Tested on: C. neoformans
experiment_notes: Antifungal activity assay (MIC80), C. neoformans
Format: cell-based
settings: Cryptococcus neoformans; lowest concentration inhibiting 80% of growth; YNB pH 7.0 HEPES, 37° C., 5% CO2, 24 to 72 h; read-out: MIC80 C. neoformans
observable: log10(MIC80) (log10 of the value in µg/mL)

{"input_smiles": "C#Cc1ccc(O)c(/C=N/NC(=O)c2ccc(COC)cc2)c1", "log10(MIC80)": -0.60}
{"input_smiles": "C#Cc1ccc(O)c(/C=N/NC(=O)c2ccc(OC(F)(F)F)cc2F)c1", "log10(MIC80)": 0.60}
{"input_smiles": "C#Cc1cccc(/C=N/NC(=O)c2ccc(Br)c(Br)c2)c1O", "log10(MIC80)": -1.82}
{"input_smiles": "C#Cc1ccc(/C=N/NC(=O)c2ccc(Br)c(Br)c2)c(O)c1", "log10(MIC80)": -2.15}
{"input_smiles": "C#Cc1ccc(/C=N/NC(=O)c2ccc(Br)c(O)c2)c(O)c1", "log10(MIC80)": 0.00}
{"input_smiles": "C#Cc1cccc(O)c1/C=N/NC(=O)c1ccc(Br)cc1Br", "log10(MIC80)": -1.51}
{"input_smiles": "C#Cc1cccc(O)c1/C=N/NC(=O)c1ccc(Br)c(Br)c1", "log10(MIC80)": -1.22}
{"input_smiles": "C#Cc1ccc(/C=N/NC(=O)c2cc(Br)cc(Br)c2O)c(O)c1", "log10(MIC80)": -1.52}
{"input_smiles": "C#Cc1ccc(O)c(/C=N/NC(=O)c2ccc(Br)c(Br)c2)c1", "log10(MIC80)": -1.22}
{"input_smiles": "C#Cc1ccc(C(=O)N/N=C/c2ccc(C#C)cc2O)cc1", "log10(MIC80)": -2.15}
{"input_smiles": "C#Cc1ccc(O)c(/C=N/NC(=O)c2ccc(Br)cc2Br)c1", "log10(MIC80)": -1.52}
{"input_smiles": "C#Cc1ccc(/C=N/NC(=O)c2ccc(Br)cc2Br)c(O)c1", "log10(MIC80)": -1.52}
{"input_smiles": "C#Cc1ccc(/C=N/NC(=O)c2ccc(COCCC)cc2)c(O)c1", "log10(MIC80)": -0.60}
{"input_smiles": "C#Cc1ccc(/C=N/NC(=O)c2ccc(COCC)cc2)c(O)c1", "log10(MIC80)": -1.51}
{"input_smiles": "C#Cc1ccc(O)c(/C=N/NC(=O)c2ccc(Br)cc2)c1", "log10(MIC80)": -2.15}
{"input_smiles": "C#Cc1ccc(/C=N/NC(=O)c2ccc(Br)cc2)c(O)c1", "log10(MIC80)": -1.52}
{"input_smiles": "C#Cc1ccc(O)c(/C=N/NC(=O)c2cc(Br)cc(Br)c2O)c1", "log10(MIC80)": -1.52}
{"input_smiles": "C#Cc1cccc(/C=N/NC(=O)c2ccc(Br)cc2)c1O", "log10(MIC80)": -2.15}
{"input_smiles": "C#Cc1ccc(O)c(/C=N/NC(=O)c2ccc(C3(C(F)(F)F)N=N3)cc2)c1", "log10(MIC80)": -2.15}

* * *

Listed below: melting point values for each entry.

{"compound": "CC(C)OCc1ccc(C(=O)N/N=C/c2cc(Br)ccc2O)cc1 [SB-AF-41-15]", "melting point": "179 to 181 °C"}
{"compound": "COCc1ccc(C(=O)N/N=C/c2cc(Br)ccc2O)cc1 [SB-AF-39-15]", "melting point": "188 to 189 °C"}
{"compound": "CCOCc1ccc(C(=O)N/N=C/c2cccc(Br)c2O)cc1 [SB-AF-40-22]", "melting point": "176 to 177 °C"}
{"compound": "CCOCc1ccc(C(=O)N/N=C/c2cc(Br)cc(Br)c2O)cc1 [SB-AF-40-17]", "melting point": "205 to 207 °C"}
{"compound": "CCCOCc1ccc(C(=O)N/N=C/c2cc(Br)ccc2O)cc1 [SB-AF-44-15]", "melting point": "175 to 176 °C"}
